- procedureSummary: HILIC, Merck SeQuant ZIC-HILIC, 25 °C, 0.25 mL/min; A: water + 16 mM ammonium formate; B: acetonitrile + 0.1% formic acid, pH 3; gradient (min/%B) 0/97 2/97 10/70 15/10 17/10 18/97 25/97
- conditionDescription: stereoisomer not certain
readoutName: LC retention time (min)

Consider the reported LC retention time for these compounds:
INSERT INTO measurements (compound, measvalue) VALUES
  ('Nc1ccn(C2CC(O)C(COP(=O)([O-])OP(=O)([O-])[O-])O2)c(=O)n1 (centres undefined) [DEOXYCYTIDINE-DIPHOSPHATE]', 15.2),
  ('CC12CCC(O)CC1CCC1C2C(O)CC2(C)C1CCC2(O)C(=O)CO (centres undefined)', 1.91),
  ('NC(Cc1ccc(O)c(O)c1)C(=O)O [3-4-DIHYDROXY-L-PHENYLALANINE]', 13.4),
  ('O=c1c(OC2OC(CO)C(O)C(O)C2O)c(-c2ccc(O)c(O)c2)oc2cc(O)cc(O)c12 [Quercetin-3-beta-D-glucoside]', 9.37),
  ('NCC(O)c1ccccc1 (centres undefined)', 10.9),
  ('C=C(C)C1CC=C(C)C(=O)C1 [(R)-(-)-Carvone]', 1.55),
  ('NCC(O)c1ccc(O)cc1 (centres undefined)', 12.4);

(I) Cc1ncc(C[n+]2csc(CCOP(=O)([O-])OP(=O)(O)O)c2C)c(N)n1 [THIAMINE PYROPHOSPHATE]
(II) O=CNCC(=O)O
Sorting ascending by LC retention time, which comes first: I or II ? Indicate which entry you chose by stating its label.
II

* * *

- procedureSummary: HILIC, Merck SeQuant ZIC-HILIC, 25 °C, 0.25 mL/min; A: water + 16 mM ammonium formate; B: acetonitrile + 0.1% formic acid, pH 3; gradient (min/%B) 0/97 2/97 10/70 15/10 17/10 18/97 25/97
- conditionDescription: stereoisomer not certain
readoutName: LC retention time (min)

Consider the reported LC retention time for these compounds:
INSERT INTO measurements (compound, readoutname, measvalue) VALUES
  ('OC1CCCCC1O (stereo not drawn) [TRANS-CYCLOHEXANEDIOL]', 'LC retention time', 1.85),
  ('CCCCCCCCCCCCCCCCCC(=O)OCC(O)COP(=O)([O-])OCC[N+](C)(C)C (stereo unspecified)', 'LC retention time', 11.2),
  ('CC(=O)C(C)O (stereo unspecified)', 'LC retention time', 2.12),
  ('CC(=O)NC(C(=O)O)C(C)C (racemic)', 'LC retention time', 2.08),
  ('O=C(O)c1cc[n+]([O-])cc1 [Isonicotinic acid N-oxide]', 'LC retention time', 9.7);

(a) Oc1ccc2[nH]ccc2c1 [5-Hydroxyindole]
(b) NC(CCCC(N)C(=O)O)C(=O)O (stereo unspecified) [LL-2-6-DIAMINOHEPTANEDIOATE]
Which shows the larger LC retention time value: a or b ? Indicate which entry you chose by stating its label.
b

(I) Cn1c(=O)[nH]c2nc[nH]c2c1=O
(II) CCCCC(N)C(=O)O (stereo unspecified)
Sorting ascending by LC retention time, which comes first: I or II ? Indicate which entry you chose by stating its label.
I
(I: 2.14 min, II: 11.2 min)

(I) CC(=O)N[C@@H](Cc1ccc(O)cc1)C(=O)O
(II) Cc1cnc(=O)[nH]c1N
Which shows the larger LC retention time value: I or II ? Indicate which entry you chose by stating its label.
II
(II: 11.6 min, I: 2.16 min)

* * *

- procedureSummary: HILIC, Merck SeQuant ZIC-HILIC, 25 °C, 0.25 mL/min; A: water + 16 mM ammonium formate; B: acetonitrile + 0.1% formic acid, pH 3; gradient (min/%B) 0/97 2/97 10/70 15/10 17/10 18/97 25/97
- conditionDescription: stereoisomer not certain
readoutName: LC retention time (min)

Consider the reported LC retention time for these compounds:
INSERT INTO results (compound, measvalue) VALUES
  ('CCCC(=O)[O-] [BUTANOATE]', 2.15),
  ('C=CC1=C(C)C(C=c2[nH]c(=Cc3[nH]c(C=C4NC(=O)C(C)=C4C=C)c(C)c3CCC(=O)O)c(CCC(=O)O)c2C)=NC1=O', 2.06);

(a) CC(C)C(=O)O [ISOBUTYRATE]
(b) Nc1ccc(C(=O)O)cn1
Sorting ascending by LC retention time, which comes first: a or b ? Indicate which entry you chose by stating its label.
a

* * *

- procedureSummary: HILIC, Merck SeQuant ZIC-HILIC, 25 °C, 0.25 mL/min; A: water + 16 mM ammonium formate; B: acetonitrile + 0.1% formic acid, pH 3; gradient (min/%B) 0/97 2/97 10/70 15/10 17/10 18/97 25/97
- conditionDescription: stereoisomer not certain
readoutName: LC retention time (min)

Consider the reported LC retention time for these molecules:
INSERT INTO measurements (molecule, measvalue) VALUES
  ('O=C(O)C(O)Cc1ccc(O)cc1 (configuration not stated) [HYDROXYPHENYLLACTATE]', 5.36),
  ('O=C(O)C(O)COP(=O)(O)O (configuration not stated) [3-PHOSPHOGLYCERATE]', 18.1),
  ('CC(=O)C1C(=O)C=C(C)OC1=O (configuration not stated) [Dehydroacetic acid]', 1.56),
  ('CC(=O)NCCCNCCCCNCCCN [N1-ACETYLSPERMINE]', 19.9);

(A) O=C(O)CP(=O)(O)O [PHOSPHONOACETATE]
(B) CCCCCCCCC=CCCCCCCCC(=O)OCC(CO)OC(=O)CCCCCCCC=CCCCCCCCC (configuration not stated) [1-2-dioleoyl-sn-glycerol]
Sorting ascending by LC retention time, which comes first: A or B ? Indicate which entry you chose by stating its label.
B

(a) C=C(OP(=O)(O)O)C(=O)[O-] [PHOSPHOENOLPYRUVATE]
(b) CC(=O)OCC[N+](C)(C)C [ACETYLCHOLINE+C2H2O4]
(c) O=C(O)CCC(=O)O [succinic acid]
Exam item: list the entries in increasing order of LC retention time. Record the ranking as a list of labels in the requested order.
c, b, a
(c: 2.19 min, b: 10 min, a: 14.7 min)

(I) O=C(O)CCCCCCCCC(=O)O [Sebacic acid]
(II) [NH3+]CC(=O)N1CCCC1C(=O)[O-] (configuration not stated) [Gly-Pro]
Sorting ascending by LC retention time, which comes first: I or II ? Indicate which entry you chose by stating its label.
I

* * *

- procedureSummary: HILIC, Merck SeQuant ZIC-HILIC, 25 °C, 0.25 mL/min; A: water + 16 mM ammonium formate; B: acetonitrile + 0.1% formic acid, pH 3; gradient (min/%B) 0/97 2/97 10/70 15/10 17/10 18/97 25/97
- conditionDescription: stereoisomer not certain
readoutName: LC retention time (min)

Consider the reported LC retention time for these compounds:
INSERT INTO measurements (compound, readoutname, measvalue) VALUES
  ('Nc1ccn(C2OC(COP(=O)(O)OP(=O)(O)O)C(O)C2O)c(=O)n1 (configuration not stated) [CYTIDINE DIPHOSPHATE]', 'LC retention time', 15.4),
  ('O=C(O)C(O)c1ccc(O)c(O)c1 (configuration not stated) [3-4 DIHYDROXYMANDELATE]', 'LC retention time', 10.3),
  ('Cc1c[nH]c(=O)[nH]c1=O', 'LC retention time', 2.14),
  ('NC(=O)C[C@H](N)C(=O)O', 'LC retention time', 14.2),
  ('NC(N)=NCCC[C@H](N)C(=O)O', 'LC retention time', 16);

(P) NC(CCCC(=O)O)C(=O)O (configuration not stated) [AMINOADIPATE]
(Q) CC(CCC(=O)O)CC(=O)O (configuration not stated)
(R) O=c1[nH]c(=O)c2[nH]cnc2[nH]1
(S) O=C(O)c1ccc(CO)o1 [5-hydroxymethyl-2-furancarboxylic acid]
Sort by LC retention time, descending. Record the ranking as a list of labels in the requested order.
P, R, S, Q
(P: 13.8 min, R: 8.96 min, S: 4.31 min, Q: 2.13 min)

* * *

- procedureSummary: HILIC, Merck SeQuant ZIC-HILIC, 25 °C, 0.25 mL/min; A: water + 16 mM ammonium formate; B: acetonitrile + 0.1% formic acid, pH 3; gradient (min/%B) 0/97 2/97 10/70 15/10 17/10 18/97 25/97
- conditionDescription: stereoisomer not certain
readoutName: LC retention time (min)

INSERT INTO results (compound, measvalue) VALUES
  ('NC(=O)C1CCCN1C(=O)C(Cc1cnc[nH]1)NC(=O)C1CCC(=O)N1 (configuration not stated)', 13.3),
  ('NC(Cc1cc(I)c(O)c(I)c1)C(=O)O (configuration not stated)', 10.5),
  ('COc1cc(C=CC(=O)O)ccc1O [FERULATE]', 1.94),
  ('CNC(CCC(=O)O)C(=O)O (configuration not stated) [N-METHYLGLUTAMATE]', 13.9);

(a) NC1(C(=O)O)CC1 [1-AMINOCYCLOPROPANECARBOXYLATE]
(b) CC(CCC(=O)O)C1CCC2C3CCC4CC(O)CCC4(C)C3CC(O)C12C (configuration not stated)
Sorting ascending by LC retention time, which comes first: a or b ? Indicate which entry you chose by stating its label.
b

(a) CC(C)(COP(=O)(O)OP(=O)(O)OCC1OC(n2cnc3c(N)ncnc32)C(O)C1OP(=O)(O)O)C(O)C(=O)NCCC(=O)NCCS (configuration not stated)
(b) CC(=O)NCC(=O)O
Which shows the larger LC retention time value: a or b ? Indicate which entry you chose by stating its label.
a

(1) CC(=O)C1CCC2C3CCC4=CC(=O)CCC4(C)C3CCC12C (configuration not stated)
(2) O=C(O)C=Cc1cnc[nH]1 [UROCANATE]
(3) Nc1nc2c(ncn2C2OC(COP(=O)(O)OP(=O)(O)O)C(O)C2O)c(=O)[nH]1 (configuration not stated) [GUANOSINE DIPHOSPHATE]
(4) O=C(O)Cc1ccc(O)c(O)c1 [3-4-DIHYDROXYPHENYLACETATE]
(5) O=C(O)c1cccnc1
Exam item: list the entries in increasing order of LC retention time. Record the ranking as a list of labels in the requested order.
1, 5, 4, 2, 3
(1: 1.58 min, 5: 2.81 min, 4: 5.6 min, 2: 8.66 min, 3: 15.4 min)
